Data origin: ChEMBL document CHEMBL5665443

Below is a list of entries, each paired with its recorded inhibition value.
Biological target: G/T mismatch-specific thymine DNA glycosylase (Homo sapiens) (UniProt Q13569);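 note: human TDG cleavage of quenched duplex DNA oligonucleotides coupled to APE1, strand release read as fluorescence at 594 nm, inhibition of TDG activity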
Sequence (Q13569 whole entry): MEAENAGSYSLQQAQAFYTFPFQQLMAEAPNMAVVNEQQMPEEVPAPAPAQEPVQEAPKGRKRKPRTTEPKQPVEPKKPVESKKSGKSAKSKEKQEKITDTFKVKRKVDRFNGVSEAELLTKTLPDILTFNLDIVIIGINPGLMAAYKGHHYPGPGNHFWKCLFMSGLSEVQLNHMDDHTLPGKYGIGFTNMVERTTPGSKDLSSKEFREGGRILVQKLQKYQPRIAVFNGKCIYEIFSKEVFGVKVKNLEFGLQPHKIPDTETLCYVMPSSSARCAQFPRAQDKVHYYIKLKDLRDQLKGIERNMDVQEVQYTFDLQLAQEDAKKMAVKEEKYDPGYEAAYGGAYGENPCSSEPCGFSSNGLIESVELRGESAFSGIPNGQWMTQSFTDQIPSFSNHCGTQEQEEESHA
Conditions: Compound Concentration 10.0 uM, Hit No
Description: Inhibition of TDG by quantifying inhibition of TDG-mediated cleavage and dissociation of quenched duplex DNA oligonucleotides, measured as fluorescence at 594 nm. To generate a functional strand incision and increase turn-over this assay is coupled to APE1.
Answer by giving the amount and then stating its unit.

// solved cases for inhibition follow
molecule: COc1ccc(S(=O)(=O)c2cc(OC)ccc2S(=O)(=O)c2ccc([C@H](C)NS(C)(=O)=O)cc2)cc1
inhibition: -5.72%
--
molecule: COc1ccccc1Nc1nc(-c2nn(Cc3c(F)cc(OCCCO)cc3F)c3ccccc23)ncc1OC
inhibition: 97.1%
--
molecule: Cc1cc(C)c(NC(=O)C2CC3CCC2C3)c(C)c1 (stereo not drawn)
inhibition: 5.7%
--
molecule: FC(F)(F)c1cccc(-c2noc(-c3cc(-c4ccccc4)c(C(F)(F)F)s3)n2)c1
inhibition: 9.3%
--
molecule: CC[C@H]1CN(c2nc(N)c(C(N)=O)nc2Cl)CCN1C1CCN(Cc2ccc(Cl)cc2)CC1
inhibition: 2.57%
--
molecule: CCc1ccccc1C(=O)Nc1n[nH]c2c(C)c(F)c(C3C(C#N)=C(C)N(C)C(C)=C3C#N)cc12
inhibition: 43.7%
--
molecule: COC[C@H](O)Cn1c(=O)cnn(-c2ccc(Cl)c(C(=O)NCC3(O)CCCCCC3)c2)c1=O
inhibition: 9.08%
--
molecule: COc1ccc(NS(=O)(=O)c2sc3ccc(Cl)cc3c2C)cc1N1CCNCC1
inhibition: 18%

Looking for the measured inhibition of Cc1[nH]cnc1CN1CCc2c(c3ccccc3n2C)C1=O , can you help?
19%

Looking for the measured inhibition of Cc1cc2c(-c3ccco3)cnc(N[C@H]3CCN(C)C[C@@H]3C(=O)NC3CCCCC3)c2[nH]c1=O , can you help?
22.3%

Looking for the measured inhibition of CCS(=O)(=O)c1cc2cc(C[C@](O)(CC(C)(C)c3ccc(F)cc3C(N)=O)C(F)(F)F)[nH]c2cn1 , can you help?
97.5%

----------
Below is a list of entries, each paired with its recorded inhibition value.
Molecular target: Endonuclease 8-like 2 (Homo sapiens);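 note: fluorescence at 594 nm reports NEIL2 cutting and release of a quenched double-stranded DNA oligo substrate, reduced signal read as inhibition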
Sequence (whole entry): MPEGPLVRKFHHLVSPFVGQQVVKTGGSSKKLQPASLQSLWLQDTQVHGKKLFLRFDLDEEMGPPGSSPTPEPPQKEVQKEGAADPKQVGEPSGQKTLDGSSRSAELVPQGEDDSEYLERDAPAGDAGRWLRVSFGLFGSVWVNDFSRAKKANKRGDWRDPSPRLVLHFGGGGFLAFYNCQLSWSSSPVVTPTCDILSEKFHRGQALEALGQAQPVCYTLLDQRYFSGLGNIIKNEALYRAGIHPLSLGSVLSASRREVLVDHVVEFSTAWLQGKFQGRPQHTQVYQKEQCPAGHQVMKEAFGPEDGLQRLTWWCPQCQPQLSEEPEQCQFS
Details: Compound Concentration 10.0 uM, Hit Yes
Description: Inhibition of NEIL2 by quantifying inhibition of NEIL2-mediated cleavage and dissociation of quenched duplex DNA oligonucleotides, measured as fluorescence at 594 nm.
All answers are understood in %, so give the number only.

// solved cases for inhibition follow
compound: COc1cc2nc(N(C)CCCNC(=O)C3CCCO3)nc(N)c2cc1OC (centres undefined)
unit abbrev: %
value observed: 32.3
//
compound: COC(=O)[C@H](CCCN=C(N)N)NC(=O)CCCc1c(-c2ccccc2)[nH]c2c(F)cc(F)cc12
unit abbrev: %
value observed: 38.2
//
compound: CC(C)NCC(O)COc1cccc2ccccc12 (centres undefined)
unit abbrev: %
value observed: 35
//
compound: Cc1ccc2nc(NCCN)c3ncc(C)n3c2c1
unit abbrev: %
value observed: 47.1
//
compound: CNCc1ccccc1-c1csc([C@@H](C)Nc2nc(C)nc3cc(OC)c(OC)cc23)c1
unit abbrev: %
value observed: 38

Looking for the measured inhibition of Cn1c(C2(NC(=O)c3ccc4c(C5CCCC5)c(-c5ncc(Br)cn5)n(C)c4c3)CCC2)nc2ccc(/C=C/C(=O)O)cc21 , can you help?
40.3

Looking for the measured inhibition of CN1CCN(c2ccc(Nc3c4ccccc4nc4ccccc34)cc2)CC1 , can you help?
90.9

Looking for the measured inhibition of COc1cc2nc(N3CCN(C(=O)COc4c(OC)cccc4C(C)C)CC3)nc(N)c2cc1OC , can you help?
50.6

Looking for the measured inhibition of CCCCCC(O)/C=C/[C@H]1C(=O)CC(O)C1C/C=C\CCCC(=O)O (some centres undefined) , can you help?
41.2
